# System: HL-60(TB) leukemia
# Assay Protocol: NCI tumour cell line growth inhibition, 48 h
Rule: TGI under 20 µM gives F, otherwise T.

Sample answers from the record:
{"columns": ["Compound", "Label Class"],
 "data": [
  ["COc1ccc(/C=C(\\NC(=O)c2ccccc2)c2nc3ccccc3[nH]2)cc1OC", "T"],
  ["C/C(=C(/c1ccccc1)c1ccc(OCC(O)CNCCN2CCOCC2)cc1)c1ccccc1 (centres undefined)", "F"]
]}

Tell me whether TGI is at least 20 µM here: COc1cccc(CNc2ncnc3c2ncn3C2OC(CO)C(O)C2O)c1O (centres undefined) F

API: above_or_equal(metric=TGI, cutoff=20 µM) for item `COc1cc(-c2ccc(N=Nc3ccc4c(S(=O)(=O)O)cc(S(=O)(=O)O)c(N)c4c3O)c(OC)c2)ccc1N=Nc1ccc2c(S(=O)(=O)O)cc(S(=O)(=O)O)c(N)c2c1O` T

Does the compound CCCCCCC(O)CC[C@H]1CCC[C@@H](C)N1 (some centres undefined) have recorded TGI that is 20 µM or more? T

Please indicate if the recorded TGI for `Cc1ccc(S(=O)(=O)CNC(=O)C(O)(O)C(F)(F)F)cc1` meets or exceeds 20 µM. T

----------
# Test system: SK-MEL-5 melanoma
# Assay Protocol: NCI tumour cell line growth inhibition, 48 h
List of TGI values.

{"columns": ["Compound", "Target Or System", "TGI"],
 "data": [
  ["CC1(C)CO[P@@](=S)(c2ccccn2)O[C@@H]1c1ccccc1", "SK-MEL-5 melanoma", "> 100 µM"],
  ["O=c1[nH]ncc2[nH]c3c4ccccc4ccc3c12", "SK-MEL-5 melanoma", "> 100 µM"],
  ["Nc1nccc(NCC2(CO)CC(OCc3ccccc3)C2)n1 (stereo not given)", "SK-MEL-5 melanoma", "> 100 µM"]
]}

compound `COc1ccccc1-c1cc(=O)c2cc(C)c(C)c(C(=O)O)c2o1` , TGI observed: > 100 µM

Item: CCC(=O)N/S(=N/S(=O)(=O)c1ccccc1)C(Cl)(Cl)Cl (stereo not given) | TGI: > 100 µM

----------
# System: CCRF-CEM leukemia
# Assay Protocol: NCI tumour cell line growth inhibition, 48 h
TGI values for the molecules below.

Worked cases, answers included:
{"columns": ["Molecule", "TGI"],
 "data": [
  ["N=c1oc2ccccc2cc1-c1nc2ccccc2[nH]1", "> 100 µM"],
  ["Cc1ccc(O)c(C2=CC3=NNC(=O)C3C(c3cccc(Cl)c3)C2)c1 (stereo not drawn)", "> 100 µM"]
]}

Item `Cc1ccc(Cl)cc1N=NC(=O)NNc1cc(Cl)ccc1C` was tested on CCRF-CEM leukemia; the reported TGI is 54.4 µM

----------
# Tested on: HOP-62 NSCLC
# Assay Protocol: NCI tumour cell line growth inhibition, 48 h
Catalogue of molecules with associated TGI

Check out these entries, answers already filled in.
{"columns": ["Molecule", "Target Or System", "Attribute Measured", "Endpoint Value"],
 "data": [
  ["COc1ccc(-c2c(-c3ccc(OC)cc3)n3c(=O)n(C)c(=O)n23)cc1", "HOP-62 NSCLC", "TGI", "> 100 µM"],
  ["C/C(=N\\NC(=O)c1ccc(Cl)cc1)c1nc2ncccc2[nH]1", "HOP-62 NSCLC", "TGI", "> 100 µM"],
  ["CCCCCCCCC/C=C1/CC(CO)(COC(=O)CC(C(C)C)C(C)C)OC1=O (stereo not drawn)", "HOP-62 NSCLC", "TGI", "17.4 µM"],
  ["CCCN(CCC)c1ccc(C=O)c(Cl)c1", "HOP-62 NSCLC", "TGI", "64.9 µM"],
  ["O=C1c2cccnc2-c2nc(-c3cccnc3)cc3c2c1nc1ccccc13", "HOP-62 NSCLC", "TGI", "3.22 µM"],
  ["Cc1ccc(S(=O)(=O)CNC(=O)C(O)(O)C(F)(F)F)cc1", "HOP-62 NSCLC", "TGI", "> 100 µM"]
]}

The reported value for C=C1C(=O)OC2C1CCC(C)C1(O)C=CC(=O)C21C (stereo not drawn) in terms of TGI is > 10 µM

// recorded TGI for `O=[N+]([O-])c1cc([As](Br)c2ccc(O)c([N+](=O)[O-])c2)ccc1O` : 4.87 µM

So, `COc1ccccc1-c1cc(=O)c2cc(C)c(C)c(C(=O)O)c2o1` ? Its TGI was > 100 µM

What the record says about `CN(Cc1ccc(F)cc1)c1ccc(CO)c(Cl)c1` : TGI is > 87.6 µM

----------
Listed below: TGI values for each entry.
# Tested on: A549 NSCLC
# Assay Protocol: NCI tumour cell line growth inhibition, 48 h
Could you give me the number in µM? Just the number is fine.

These solved cases illustrate the format of a correct answer.
{"columns": ["Compound String", "Readout Unit", "TGI"],
 "data": [
  ["N#Cc1c(Cl)c2cccnc2n2c1nc1ccccc12", "µM", 18.6],
  ["CCc1ccc2[nH]c(O)c(C3=Nc4ccccc4C3=O)c2c1", "µM", 59.7]
]}

Continue with the next molecule.
Given item `COc1cc(C(=O)Oc2c(C(C)=O)sc3c2c(=O)n(-c2ccccc2)c(=S)n3-c2ccccc2)cc(OC)c1OC` , the value recorded as its TGI is 78.3

----------
# System: LOX IMVI melanoma
# Assay Protocol: NCI tumour cell line growth inhibition, 48 h
The reader will find reported TGI values listed item by item below.
Kindly answer with a numeric value in µM, unit omitted.

These solved cases illustrate the format of a correct answer.
{"columns": ["Compound String", "Endpoint Value"],
 "data": [
  ["C=C1C(=O)C23[C@H](O)C1CC[C@H]2[C@]12COC3(O)[C@@H](O)[C@@H]1C(C)(C)CC[C@@H]2O", 33.3],
  ["O=[N+]([O-])c1cc([As](Br)c2ccc(O)c([N+](=O)[O-])c2)ccc1O", 3.96]
]}

Next:
For `C/C(=N\NC(=S)N1CCC(N2CCCCC2)CC1)c1ccccn1` the molecule record lists TGI as 8.28

----------
# Test system: NCI/ADR-RES ovarian
# Assay Protocol: NCI tumour cell line growth inhibition, 48 h; in the data active means GI50 below about 0.43 µM; inactive means the rest
One label from this list, please: True for active, False for inactive

{"columns": ["Compound", "Label Class"],
 "data": [
  ["C=C(CN1CCc2c([nH]c3ccccc23)C1)c1ccc(C(=O)Nc2ccccc2N)cc1", "False"],
  ["C=C1C(=O)O[C@H]2[C@H]1CC/C(COC(=O)N[C@H]1C[C@H](O[C@H]3C[C@](O)(C(=O)CO)Cc4c(O)c5c(c(O)c43)C(=O)c3c(OC)cccc3C5=O)O[C@@H](C)[C@H]1O)=C\\CC[C@@]1(C)O[C@@H]21", "False"],
  ["O=C(c1ccc2ccccc2c1)c1nc2cc(F)ccc2[n+]([O-])c1C(F)(F)F", "False"]
]}

Now let's try a different one.
I would be grateful if you could indicate the recorded call for COc1cc(F)ccc1-c1cc(Nc2cc(CS(C)(=N)=O)ccn2)ncc1F (configuration not stated) . True

----------
# Tested on: SK-MEL-2 melanoma
# Assay Protocol: NCI tumour cell line growth inhibition, 48 h
// TGI lookup, one value per entry
// note: answer is a bare numeric in µM

# example entries with known answers
{"columns": ["Molecule", "Attribute Measured", "Readout Unit", "Endpoint Value"],
 "data": [
  ["O=C1CCCC/C1=C\\c1ccc([N+](=O)[O-])cc1", "TGI", "µM", 46],
  ["CCC(C)C(N)C(=O)N/N=C\\c1c2c(nc3ccccc13)-c1cc3c(c(=O)n1C2)COC(=O)[C@]3(O)CC (stereo partly drawn)", "TGI", "µM", 6.59],
  ["CN(C)CCCOc1cccc(NC2=C(Cl)C(=O)C(Nc3cccc(OCCCN(C)C)c3)=C(Cl)C2=O)c1", "TGI", "µM", 3.2],
  ["N=C(N)c1ccc(-c2ccc(-c3ccc(Cl)c(Cl)c3)s2)cc1", "TGI", "µM", 5.8],
  ["Nc1ccccc1C#CC(=O)c1cccc(C(F)(F)F)c1", "TGI", "µM", 2.54],
  ["N#Cc1c(=O)c2ccccc2n2ccccc12", "TGI", "µM", 90.8],
  ["O=C(CC1(O)C(=O)Nc2ccc(F)cc21)c1ccc(C(=O)NCC2CCC3(CC2)OOC2(CCCCC2)OO3)cc1 (stereo not drawn)", "TGI", "µM", 20.7],
  ["O=[N+]([O-])C(/C(Cl)=C(\\Cl)Br)=C(/Cl)SCc1ccccc1", "TGI", "µM", 18.1],
  ["Cc1ccc(-c2c(-c3ccccc3)[nH]c(C)c2C(=O)ONC(=O)c2ccccc2)cc1", "TGI", "µM", 16.2]
]}

Shift focus to the following entry.
Summary for this molecule, `CCOC(=O)c1sc(-c2ccc(OS(=O)(=O)C[C@]34CCC(CC3=O)C4(C)C)c(C=O)c2)nc1C` : TGI is 2.69
